Where do these numbers come from? They come from ChEMBL document CHEMBL4118195.

# procedure_text: AUC (0 to t) in humanized NOD.Cg-Prkdcscid Il2rgtm1Wjl/SzJ mouse infected with Plasmodium falciparum Pf3D70087/N9 at 50 mg/kg, po administered as single dose by LC-MS/MS analysis
# Type: ADME, organism-based
# conditions: in vivo

{"molecule": "c1cc(C2CCC3(CC2)OOC2(OO3)C3CC4CC(C3)CC2C4)ccc1CN1CCOCC1 (stereo unspecified)", "unit_tag": "ng·h/mL", "AUC(0-t)": 3000}

----------
# procedure_text: Tmax in humanized NOD.Cg-Prkdcscid Il2rgtm1Wjl/SzJ mouse infected with Plasmodium falciparum Pf3D70087/N9 at 30 mg/kg, po administered as single dose by LC-MS/MS analysis
# Format: ADME, organism-based
# conditions: in vivo

{"compound": "c1cc(C2CCC3(CC2)OOC2(OO3)C3CC4CC(C3)CC2C4)ccc1CN1CCOCC1 (stereo unspecified)", "unit_tag": "h", "Tmax": 1}

----------
# procedure_text: Drug degradation in rat liver microsomes assessed as compound half life at 1 uM by UPLC-MS method
# Assay type: ADME, microsome
assay_metric: half-life at 1 µM (min)

{"compound": "c1cc(C2CCC3(CC2)OOC2(OO3)C3CC4CC(C3)CC2C4)ccc1CN1CCOCC1 (stereo unspecified)", "assay_metric": "half-life at 1 µM", "unit_tag": "min", "measured_result": 15}

----------
# procedure_text: Drug metabolism in rat liver microsomes at 5 uM after 60 mins by UPLC-MS analysis
# Type: ADME, microsome
# conditions: read-out: Drug metabolism
assay_metric: metabolised at 1 h, 5 µM

{"compound": "c1cc(C2CCC3(CC2)OOC2(OO3)C3CC4CC(C3)CC2C4)ccc1CN1CCOCC1 (stereo unspecified)", "measured_result": "82%"}

----------
# experimental_system: Cytochrome P450 2D6 (Homo sapiens, UniProt P10635)
# Sequence (P10635 whole entry): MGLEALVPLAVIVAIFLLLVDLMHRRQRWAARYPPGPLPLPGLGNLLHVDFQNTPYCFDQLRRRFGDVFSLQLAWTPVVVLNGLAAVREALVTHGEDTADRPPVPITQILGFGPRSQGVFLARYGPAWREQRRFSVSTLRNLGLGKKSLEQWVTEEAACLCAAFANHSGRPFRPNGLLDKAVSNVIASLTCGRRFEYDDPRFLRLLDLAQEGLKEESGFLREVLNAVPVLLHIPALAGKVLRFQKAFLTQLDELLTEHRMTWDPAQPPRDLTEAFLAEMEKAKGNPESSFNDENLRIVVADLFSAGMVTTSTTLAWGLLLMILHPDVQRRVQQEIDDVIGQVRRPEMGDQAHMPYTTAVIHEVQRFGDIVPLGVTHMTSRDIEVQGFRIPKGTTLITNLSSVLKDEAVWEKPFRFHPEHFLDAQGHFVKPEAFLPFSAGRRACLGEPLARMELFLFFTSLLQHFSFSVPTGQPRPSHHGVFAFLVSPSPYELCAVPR
pIC50: −log10 of the molar value.

{"molecule": "c1cc(C2CCC3(CC2)OOC2(OO3)C3CC4CC(C3)CC2C4)ccc1CN1CCOCC1 (stereo unspecified)", "pIC50": "< 4.70"}

----------
# procedure_text: Aqueous solubility after 4 hrs by HPLC analysis
# Assay type: physicochemical
# conditions: water

{"molecule": "CS(=O)(=O)O.c1cc(C2CCC3(CC2)OOC2(OO3)C3CC4CC(C3)CC2C4)ccc1CN1CCOCC1 (configuration not stated)", "qualifier_operator": ">", "solubility at 4 h (µg/mL)": 9000}
{"molecule": "CS(=O)(=O)O.c1cc(C2CCC3(CC2)OOC2(O3)C3CC4CC(C3)CC2C4)ccc1OCCN1CCOCC1 (configuration not stated)", "qualifier_operator": "=", "solubility at 4 h (µg/mL)": 6800}

----------
# procedure_text: Tmax in humanized NOD.Cg-Prkdcscid Il2rgtm1Wjl/SzJ mouse infected with Plasmodium falciparum Pf3D70087/N9 at 50 mg/kg, po administered as single dose by LC-MS/MS analysis
# Type: ADME, organism-based
# conditions: in vivo

{"compound": "c1cc(C2CCC3(CC2)OOC2(OO3)C3CC4CC(C3)CC2C4)ccc1CN1CCOCC1 (stereo unspecified)", "Tmax [h]": 2}

----------
# procedure_text: Drug metabolism in human liver microsomes at 5 uM after 60 mins by UPLC-MS analysis
# Type: ADME, microsome
# conditions: read-out: Drug metabolism

{"compound": "c1cc(C2CCC3(CC2)OOC2(OO3)C3CC4CC(C3)CC2C4)ccc1CN1CCOCC1 (stereo unspecified)", "metabolised at 1 h, 5 µM / %": 63}
